Assignment: determine reported ΔI/Io, percentage of EB–DNA fluorescence quenching for the given molecules.
System: EB–DNA adduct (CT DNA)
Assay Method Text: Competitive study with EB (EB–DNA fluorescence quenching)
Format: binding, calf
Condition Notes: [EB] = 20 μM, [DNA] = 26 μM, λexc 540 nm, λem 592 nm
Give bare numbers, in %.

{"Molecule": "CN1CCN(c2c(F)cc3c(=O)c(C(=O)[O-])cn(CCF)c3c2F)CC1.CN1CCN(c2c(F)cc3c(=O)c(C(=O)[O-])cn(CCF)c3c2F)CC1.CO.CO.[Zn+2] [complex 3, [Zn(flrx)2(MeOH)2]]", "Units Of Measure": "%", "Measurement": 85.9}
{"Molecule": "CN1CCN(c2c(F)cc3c(=O)c(C(=O)[O-])cn(CCF)c3c2F)CC1.CN1CCN(c2c(F)cc3c(=O)c(C(=O)[O-])cn(CCF)c3c2F)CC1.[Mn+2].c1ccc(Nc2ccccn2)nc1 [complex 10, [Mn(flrx)2(bipyam)]]", "Units Of Measure": "%", "Measurement": 81.1}
{"Molecule": "CN1CCN(c2c(F)cc3c(=O)c(C(=O)[O-])cn(CCF)c3c2F)CC1.CN1CCN(c2c(F)cc3c(=O)c(C(=O)[O-])cn(CCF)c3c2F)CC1.[Zn+2].c1cnc2c(c1)ccc1cccnc12 [complex 14, [Zn(flrx)2(phen)]]", "Units Of Measure": "%", "Measurement": 77.9}
{"Molecule": "CN1CCN(c2c(F)cc3c(=O)c(C(=O)[O-])cn(CCF)c3c2F)CC1.CN1CCN(c2c(F)cc3c(=O)c(C(=O)[O-])cn(CCF)c3c2F)CC1.[Mn+2].c1cnc2c(c1)ccc1cccnc12 [complex 11, [Mn(flrx)2(phen)]]", "Units Of Measure": "%", "Measurement": 76.7}

Continue with the next molecule.
I have this molecule here, CN1CCN(c2c(F)cc3c(=O)c(C(=O)[O-])cn(CCF)c3c2F)CC1.[Cl-].[Cu+2].c1ccc(-c2ccccn2)nc1 [complex 6, [Cu(flrx)(bipy)Cl]] , and I need its recorded ΔI/Io, percentage of EB–DNA fluorescence quenching.
61.9

---

System: Xanthomonas campestris ATCC 1395
Assay Method Text: Antimicrobial activity, MIC determination
Assay type: cell-based
Condition Notes: X. campestris; 24-h incubation, 28°C
Attribute Measured: MIC (µg/mL)
Give bare numbers, in µg/mL.

Some entries whose results are on file:
{"Molecule": "CN1CCN(c2c(F)cc3c(=O)c(C(=O)[O-])cn(CCF)c3c2F)CC1.CN1CCN(c2c(F)cc3c(=O)c(C(=O)[O-])cn(CCF)c3c2F)CC1.[Zn+2].c1cnc2c(c1)ccc1cccnc12 [complex 14, [Zn(flrx)2(phen)]]", "Measurement": 16}
{"Molecule": "CN1CCN(c2c(F)cc3c(=O)c(C(=O)[O-])cn(CCF)c3c2F)CC1.CN1CCN(c2c(F)cc3c(=O)c(C(=O)[O-])cn(CCF)c3c2F)CC1.[Ni+2].c1cnc2c(c1)ccc1cccnc12 [complex 19, [Ni(flrx)2(phen)]]", "Measurement": 16}
{"Molecule": "CN1CCN(c2c(F)cc3c(=O)c(C(=O)[O-])cn(CCF)c3c2F)CC1.CN1CCN(c2c(F)cc3c(=O)c(C(=O)[O-])cn(CCF)c3c2F)CC1.[Cu+2] [complex 1, [Cu(flrx)2]]", "Measurement": 8}

For each listed entry, give its MIC.
1. CN1CCN(c2c(F)cc3c(=O)c(C(=O)[O-])cn(CCF)c3c2F)CC1.CN1CCN(c2c(F)cc3c(=O)c(C(=O)[O-])cn(CCF)c3c2F)CC1.[Zn+2].c1ccc(Nc2ccccn2)nc1 [complex 13, [Zn(flrx)2(bipyam)]]
2. CN1CCN(c2c(F)cc3c(=O)c(C(=O)[O-])cn(CCF)c3c2F)CC1.[Cl-].[Cu+2].c1ccc(-c2ccccn2)nc1 [complex 6, [Cu(flrx)(bipy)Cl]]
3. CN1CCN(c2c(F)cc3c(=O)c(C(=O)[O-])cn(CCF)c3c2F)CC1.CN1CCN(c2c(F)cc3c(=O)c(C(=O)[O-])cn(CCF)c3c2F)CC1.[Zn+2].c1ccc(-c2ccccn2)nc1 [complex 12, [Zn(flrx)2(bipy)]]
4. CN1CCN(c2c(F)cc3c(=O)c(C(=O)[O-])cn(CCF)c3c2F)CC1.CN1CCN(c2c(F)cc3c(=O)c(C(=O)[O-])cn(CCF)c3c2F)CC1.[Co+2].c1ccc(Nc2ccccn2)nc1 [complex 16, [Co(flrx)2(bipyam)]]
5. CN1CCN(c2c(F)cc3c(=O)c(C(=O)[O-])cn(CCF)c3c2F)CC1.CN1CCN(c2c(F)cc3c(=O)c(C(=O)[O-])cn(CCF)c3c2F)CC1.CO.CO.[Co+2] [complex 4, [Co(flrx)2(MeOH)2]]

1. 16
2. 8
3. 16
4. 16
5. 16

---

Assignment: determine reported HSA fluorescence, % of the initial fluorescence intensity (I/Io) for the given compounds.
Assay System: human serum albumin (HSA) (Homo sapiens)
Construct: purchased
Sequence (P02768 25-609): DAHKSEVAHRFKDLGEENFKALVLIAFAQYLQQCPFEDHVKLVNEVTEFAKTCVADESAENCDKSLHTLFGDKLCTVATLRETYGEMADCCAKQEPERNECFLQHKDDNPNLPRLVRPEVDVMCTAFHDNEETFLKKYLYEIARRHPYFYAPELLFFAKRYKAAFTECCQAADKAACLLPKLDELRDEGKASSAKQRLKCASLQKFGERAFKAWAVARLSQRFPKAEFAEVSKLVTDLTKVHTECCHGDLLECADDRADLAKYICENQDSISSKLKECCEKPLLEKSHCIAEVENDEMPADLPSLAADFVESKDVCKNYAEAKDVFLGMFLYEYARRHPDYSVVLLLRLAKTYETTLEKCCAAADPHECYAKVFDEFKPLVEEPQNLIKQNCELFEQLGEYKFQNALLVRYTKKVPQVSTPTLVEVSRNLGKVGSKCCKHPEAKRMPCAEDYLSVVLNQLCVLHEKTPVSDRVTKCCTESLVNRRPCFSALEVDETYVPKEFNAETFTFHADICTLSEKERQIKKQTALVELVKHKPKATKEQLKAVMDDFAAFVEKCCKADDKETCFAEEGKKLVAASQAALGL
Assay Method Text: Albumin binding by tryptophan fluorescence emission quenching
Condition Notes: λem,max = 351 nm, final value of titration (Figure S10)
Give bare numbers, in %.

{"Compound": "CN1CCN(c2c(F)cc3c(=O)c(C(=O)[O-])cn(CCF)c3c2F)CC1.CN1CCN(c2c(F)cc3c(=O)c(C(=O)[O-])cn(CCF)c3c2F)CC1.O.O.[Mn+2] [complex 2, [Mn(flrx)2(H2O)2]]", "Measurement": 28.5}
{"Compound": "CN1CCN(c2c(F)cc3c(=O)c(C(=O)[O-])cn(CCF)c3c2F)CC1.CN1CCN(c2c(F)cc3c(=O)c(C(=O)[O-])cn(CCF)c3c2F)CC1.[Zn+2].c1ccc(-c2ccccn2)nc1 [complex 12, [Zn(flrx)2(bipy)]]", "Measurement": 25.9}
{"Compound": "CN1CCN(c2c(F)cc3c(=O)c(C(=O)[O-])cn(CCF)c3c2F)CC1.CN1CCN(c2c(F)cc3c(=O)c(C(=O)[O-])cn(CCF)c3c2F)CC1.[Zn+2].c1ccc(Nc2ccccn2)nc1 [complex 13, [Zn(flrx)2(bipyam)]]", "Measurement": 27.9}

For human serum albumin (HSA) (Homo sapiens), provide HSA fluorescence, % of the initial fluorescence intensity (I/Io) of CN1CCN(c2c(F)cc3c(=O)c(C(=O)[O-])cn(CCF)c3c2F)CC1.CN1CCN(c2c(F)cc3c(=O)c(C(=O)[O-])cn(CCF)c3c2F)CC1.CO.CO.[Co+2] [complex 4, [Co(flrx)2(MeOH)2]] please.
44.3

---

Tested on: Bacillus subtilis ATCC 6633
Assay Method Text: Antimicrobial activity, MIC determination
Type: cell-based
Condition Notes: B. subtilis; 24-h incubation, 37°C
Attribute Measured: MIC (values in parentheses)
State the result as a value with its unit after it.

{"Compound": "CN1CCN(c2c(F)cc3c(=O)c(C(=O)[O-])cn(CCF)c3c2F)CC1.CN1CCN(c2c(F)cc3c(=O)c(C(=O)[O-])cn(CCF)c3c2F)CC1.O.O.[Mn+2] [complex 2, [Mn(flrx)2(H2O)2]]", "MIC (values in parentheses)": "4.7 µM"}

Continue with the next compound.
I have this compound here, CN1CCN(c2c(F)cc3c(=O)c(C(=O)[O-])cn(CCF)c3c2F)CC1.CN1CCN(c2c(F)cc3c(=O)c(C(=O)[O-])cn(CCF)c3c2F)CC1.[Co+2].c1ccc(Nc2ccccn2)nc1 [complex 16, [Co(flrx)2(bipyam)]] , and I need its recorded MIC (values in parentheses).
8.3 µM

---

Assay System: bovine serum albumin (BSA) (Bos taurus, UniProt P02769)
Construct: purchased
Sequence (P02769 25-607): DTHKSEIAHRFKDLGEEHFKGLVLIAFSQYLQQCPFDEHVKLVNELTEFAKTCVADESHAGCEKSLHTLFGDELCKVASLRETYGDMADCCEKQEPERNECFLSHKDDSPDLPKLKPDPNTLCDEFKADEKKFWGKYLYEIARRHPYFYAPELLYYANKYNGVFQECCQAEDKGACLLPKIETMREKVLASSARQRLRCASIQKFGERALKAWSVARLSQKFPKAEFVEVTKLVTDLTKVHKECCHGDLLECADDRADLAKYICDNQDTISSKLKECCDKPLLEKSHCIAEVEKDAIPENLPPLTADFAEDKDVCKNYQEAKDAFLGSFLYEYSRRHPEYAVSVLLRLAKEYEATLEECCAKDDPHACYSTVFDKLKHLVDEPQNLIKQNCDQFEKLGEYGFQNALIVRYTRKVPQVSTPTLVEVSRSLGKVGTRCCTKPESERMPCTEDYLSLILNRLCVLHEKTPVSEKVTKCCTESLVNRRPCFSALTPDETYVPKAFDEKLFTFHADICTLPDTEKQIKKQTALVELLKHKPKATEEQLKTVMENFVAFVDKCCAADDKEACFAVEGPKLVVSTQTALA
Assay Method Text: Albumin binding by tryptophan fluorescence emission quenching
Condition Notes: λem,max = 342 nm, final value of titration (Figure S11)
Assignment: determine reported BSA fluorescence, % of the initial fluorescence intensity (I/Io) for the given molecules.
State the result as a value with its unit after it.

Some entries whose results are on file:
{"Molecule": "CN1CCN(c2c(F)cc3c(=O)c(C(=O)O)cn(CCF)c3c2F)CC1", "Measurement": "47.5%"}
{"Molecule": "CN1CCN(c2c(F)cc3c(=O)c(C(=O)[O-])cn(CCF)c3c2F)CC1.[Cl-].[Cu+2].c1ccc(Nc2ccccn2)nc1 [complex 7, [Cu(flrx)(bipyam)Cl]]", "Measurement": "26.6%"}
{"Molecule": "CN1CCN(c2c(F)cc3c(=O)c(C(=O)[O-])cn(CCF)c3c2F)CC1.CN1CCN(c2c(F)cc3c(=O)c(C(=O)[O-])cn(CCF)c3c2F)CC1.[Ni+2].c1cnc2c(c1)ccc1cccnc12 [complex 19, [Ni(flrx)2(phen)]]", "Measurement": "25.6%"}
{"Molecule": "CN1CCN(c2c(F)cc3c(=O)c(C(=O)[O-])cn(CCF)c3c2F)CC1.CN1CCN(c2c(F)cc3c(=O)c(C(=O)[O-])cn(CCF)c3c2F)CC1.CO.CO.[Ni+2] [complex 5, [Ni(flrx)2(MeOH)2]]", "Measurement": "19.2%"}

Continue with the next molecule.
I have this molecule here, CN1CCN(c2c(F)cc3c(=O)c(C(=O)[O-])cn(CCF)c3c2F)CC1.CN1CCN(c2c(F)cc3c(=O)c(C(=O)[O-])cn(CCF)c3c2F)CC1.[Co+2].c1cnc2c(c1)ccc1cccnc12 [complex 17, [Co(flrx)2(phen)]] , and I need its recorded BSA fluorescence, % of the initial fluorescence intensity (I/Io).
26.3%
